- Measured on: human LPA1 (Homo sapiens, UniProt Q92633)
- Construct: expressed in transfected cells; host or cells: Chinese hamster ovary (CHO) cells
- Sequence (Q92633 whole entry): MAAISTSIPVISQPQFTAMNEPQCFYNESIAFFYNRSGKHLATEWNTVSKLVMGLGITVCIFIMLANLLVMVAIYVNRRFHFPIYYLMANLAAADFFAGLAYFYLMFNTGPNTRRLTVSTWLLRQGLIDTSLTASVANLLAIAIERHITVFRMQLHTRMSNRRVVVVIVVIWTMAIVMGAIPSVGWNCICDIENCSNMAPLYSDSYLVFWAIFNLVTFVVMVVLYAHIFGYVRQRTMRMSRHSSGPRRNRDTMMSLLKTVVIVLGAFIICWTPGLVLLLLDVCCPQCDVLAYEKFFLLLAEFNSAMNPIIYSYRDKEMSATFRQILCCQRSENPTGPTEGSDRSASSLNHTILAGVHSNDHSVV
- Procedure summary: LPA1 functional antagonist assay (calcium flux)
- Type: cell-based
- Condition: human LPA1 functional antagonist assay; read-out: hLPA1 IC50
Property: IC50 (nM)

Past entries and their recorded results:
INSERT INTO results (compound, measured_on, unit_info, reported_measurement) VALUES
  ('Cc1nc(-c2nnn(C)c2CNC(=O)OCCC(C)(F)F)ccc1O[C@H]1CCC[C@H](C(=O)O)C1', 'human LPA1 (Homo sapiens, UniProt Q92633)', 'nM', 86),
  ('Cc1nc(-c2nnn(C)c2CNC(=O)O[C@@H](C)C(F)(F)F)ccc1O[C@H]1CCC[C@H](C(=O)O)C1', 'human LPA1 (Homo sapiens, UniProt Q92633)', 'nM', 101),
  ('Cc1nc(-c2nnn(C)c2CNC(=O)OCC2CC2(C)C)ccc1O[C@H]1CCC[C@H](C(=O)O)C1 (stereo partly drawn)', 'human LPA1 (Homo sapiens, UniProt Q92633)', 'nM', 65),
  ('Cc1nc(-c2nnn(C)c2CNC(=O)OCc2cccc(F)c2)cnc1O[C@H]1CCC[C@H](C(=O)O)C1', 'human LPA1 (Homo sapiens, UniProt Q92633)', 'nM', 122);

P. Cc1nc(-c2nnn(C)c2CNC(=O)O[C@H](C)C(C)C)ccc1O[C@H]1CCC[C@H](C(=O)O)C1
Q. Cc1nc(-c2nnn(C)c2CNC(=O)O[C@H](C)C2CC2)ccc1O[C@H]1CCC[C@H](C(=O)O)C1
Task item: // compare measured IC50, left P , right Q , return larger Could you answer with the label of the item you picked?
Reply: Q
